- protocol summary: DPPH radical scavenging assay
- Type: biochemical
- condition notes: in ethanol; DPPH 200 µM; read at 520 nm over 7.5 h; read-out: EC50 for DPPH inhibition
Lab note: compare EC50 with 30 µM, writing Criterion met if less and Criterion not met if equal or more.

// below: answered molecules
> print(dat)
                                   molecule     assigned.label
1           COc1cc(C(=O)CCc2ccc(O)cc2)ccc1O  Criterion not met
2       COc1cc(C(=O)CCc2ccc(O)cc2)cc(OC)c1O  Criterion not met
3  COc1cc(C(=O)/C=C/c2ccc(O)cc2)cc(OC)c1O [a9, 4,4′-dihydroxy-3′,5′-dimethoxy-chalcone]  Criterion not met

Query: hey, is EC50 for O=C(CCc1ccc(O)cc1)c1c(O)cc(O)cc1O lower than 30 µM or not?
Result: Criterion met

Query: Given the entry COc1cc(/C=C/C(=O)c2cc(OC)c(O)c(OC)c2)cc(OC)c1O , would its reported EC50 be below 30 µM?
Result: Criterion not met

---

The entries below come with measured pEC50 values attached.
- protocol summary: DPPH radical scavenging assay
- Assay type: biochemical
- condition notes: in ethanol; DPPH 200 µM; read at 520 nm over 7.5 h; read-out: EC50 for DPPH inhibition
pEC50 here: minus log base 10 of the concentration, concentration in moles per litre.

> print(dat)
                                   molecule  measured.endpoint  numeric.readout
1        COc1cc(C(=O)CCc2ccc(O)c(O)c2)ccc1O              pEC50             4.49
2        COc1cc(CCC(=O)c2ccc(O)c(O)c2)ccc1O              pEC50             4.96
3  O=C(CCc1ccc(O)cc1)c1ccc(O)c(O)c1 [b3, 3′,4,4′-trihydroxy-dihydrochalcone]              pEC50             4.80

Query: Supply measured pEC50 of COc1cc(C(=O)/C=C/c2cc(OC)c(O)c(OC)c2)ccc1O in your reply.
Result: 4.35

Query: Quickly give me recorded pEC50 for COc1cc(CCC(=O)c2ccc(O)c(OC)c2)ccc1O
Result: 4.53
